biological target: human recombinant CAVI (Homo sapiens); construct: Most isozymes were truncated, and only the catalytic domains of the proteins were produced; made in house; host or cells: bacterial expression system; assay: Fluorescence-based thermal shift assay (FTSA), CAVI; format: binding; conditions: 37 °C, pH 7.0
Sequence (P23280 21-278 limits assumed): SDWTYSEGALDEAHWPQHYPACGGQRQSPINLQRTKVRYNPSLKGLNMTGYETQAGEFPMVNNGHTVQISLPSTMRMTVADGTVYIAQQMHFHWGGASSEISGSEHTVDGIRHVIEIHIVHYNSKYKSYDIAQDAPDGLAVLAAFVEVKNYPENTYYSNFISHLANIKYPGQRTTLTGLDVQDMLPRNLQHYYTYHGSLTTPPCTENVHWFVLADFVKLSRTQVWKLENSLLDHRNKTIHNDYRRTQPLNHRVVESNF
Reported pKd values are given for each entry in this list.
Would you please state pKd, meaning minus log10 of the concentration in mol/L, as a bare number?

# count of solved cases: 3
Structure Smiles String	pKd
CC1(C)C(/C=C/C2=C(Oc3ccc(CCC(=O)NCCOCCOCCOCCOCCOCCOCCOCCOCCOCCOCCOCCNC(=O)CCS(=O)(=O)c4c(F)c(F)c(S(N)(=O)=O)c(F)c4NC4CCCCCCC4)cc3)C(=C/C=C3\N(CCCCS(=O)(=O)[O-])c4ccccc4C3(C)C)/CCC2)=[N+](CCCCS(=O)(=O)[O-])c2ccccc21.[Na+]	6.30
CC1(C)C(/C=C/C2=C(Oc3ccc(CCC(=O)NCCCOCCOCCOCCCNC(=O)CCS(=O)(=O)c4c(F)c(F)c(S(N)(=O)=O)c(F)c4NC4CCCCCCC4)cc3)C(=C/C=C3\N(CCCCS(=O)(=O)[O-])c4ccccc4C3(C)C)/CCC2)=[N+](CCCCS(=O)(=O)[O-])c2ccccc21.[Na+]	6.15
CC1(C)C(/C=C/C2=C(Oc3cccc(CC(=O)NCCCOCCOCCOCCCNC(=O)CCS(=O)(=O)c4c(F)c(F)c(S(N)(=O)=O)c(F)c4NC4CCCCCCC4)c3)C(=C/C=C3\N(CCCCS(=O)(=O)[O-])c4ccccc4C3(C)C)/CCC2)=[N+](CCCCS(=O)(=O)[O-])c2ccccc21.[Na+]	6.15

Now look at this one.
Record CC1(C)C(/C=C/C2=C(NCCCOCCOCCOCCCNC(=O)CCC(=O)NCCS(=O)(=O)c3c(F)c(F)c(S(N)(=O)=O)c(F)c3NC3CCCCCCC3)C(=C/C=C3\N(CCCCS(=O)(=O)[O-])c4ccccc4C3(C)C)/CCC2)=[N+](CCCCS(=O)(=O)[O-])c2ccccc21.[Na+] , field pKd: 6.00
